system: IGROV1 complex spheroids (HUVEC, MSC), viability % test/control; assay: Anticancer human tumor IGROV1 cell line growth inhibition [GQUAD]; details: second compound 1 µM; first compound 0.316 µM; stronger effect = lower value;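 further: spheroids exposed to compounds for 7 days before readout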;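 on viability, T/C: 100% = DMSO vehicle control viability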
readout.name: viability, T/C (%)
Value expressed in %; do not type the unit.

-- ask Hello, please tell me recorded viability, T/C for this one: C=CCn1c(=O)c2cnc(Nc3ccc(N4CCN(C)CC4)cc3)nc2n1-c1cccc(C(C)(C)O)n1 + Cc1[nH]c2ccc(F)cc2c1-c1nc2c3cccnc3c3ncccc3c2[nH]1
-- reply 2.16

-- ask Assign viability, T/C to the following record: CCCS(=O)(=O)Nc1ccc(F)c(C(=O)c2c[nH]c3ncc(-c4ccc(Cl)cc4)cc23)c1F + CN(C)c1ccc(Nc2c3ccc(NC(=O)CCN4CCCC4)cc3nc3cc(NC(=O)CCN4CCCC4)ccc23)cc1
-- reply 88

-- ask Identify the reported viability, T/C for the following entry. CCCS(=O)(=O)Nc1ccc(F)c(C(=O)c2c[nH]c3ncc(-c4ccc(Cl)cc4)cc23)c1F + Cc1[nH]c2ccc(F)cc2c1-c1nc2c3cccnc3c3ncccc3c2[nH]1
-- reply 3.41

----------
Tested on: IGROV1 complex spheroids (HUVEC, MSC), viability % test/control
Experiment: Anticancer human tumor IGROV1 cell line growth inhibition [GQUAD];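 further: spheroids exposed to compounds for 7 days before readout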;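 on viability, T/C: 100% = DMSO vehicle control viability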
Conditions: second compound 3.16 µM; first compound 3.16 µM; stronger effect = lower value
Description: DNA G-quadruplex Stabilizer Agents in Combinations in Complex Spheroids A high-throughput screen of multi-cell type tumor spheroids was designed to identify active combinations of DNA G-quadruplex stabilizer agents and targeted small molecules. […] Compounds. […] If the clinical Cmax for an agent had not been determined, the highest concentration tested was 10 microM. […]
readout.name: viability, T/C (%)
Only the number, expressed in %, is required.

Sample records with viability, T/C:
CC1COCCN1c1cc(C2(S(C)(=N)=O)CC2)nc(-c2ccnc3[nH]ccc23)n1 (centres undefined) + Cc1[nH]c2ccc(F)cc2c1-c1nc2c3cccnc3c3ncccc3c2[nH]1
3.97
Nc1ccn(C2OC(CO)C(O)C2(F)F)c(=O)n1 (centres undefined) + CN(C)c1ccc(Nc2c3ccc(NC(=O)CCN4CCCC4)cc3nc3cc(NC(=O)CCN4CCCC4)ccc23)cc1
5.78
COc1cccc2c1C(=O)c1c(O)c3c(c(O)c1C2=O)CC(O)(C(=O)CO)CC3OC1CC(N)C(O)C(C)O1 (centres undefined) + Cc1[nH]c2ccc(F)cc2c1-c1nc2c3cccnc3c3ncccc3c2[nH]1
0.08

Turning to the following compound.
-- ask Consider the compound O=C(NO)c1cnc(N2CCN(S(=O)(=O)c3ccc4ccccc4c3)CC2)nc1 + Cc1cnc(CNC(=O)c2c(=O)c3ccc(N4CCCN(C)CC4)nc3n3c2sc2ccccc23)cn1 and give its recorded viability, T/C.
-- reply 0.05

----------
Test system: IGROV1 complex spheroids (HUVEC, MSC), viability % test/control
Test: Anticancer human tumor IGROV1 cell line growth inhibition [GQUAD]; active = viability on the fitted dose curve at most 10% of control; inactive = the rest;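 further: spheroids exposed to compounds for 7 days before readout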
Settings: second compound 0.316 µM; first compound 1 µM
Description: DNA G-quadruplex Stabilizer Agents in Combinations in Complex Spheroids A high-throughput screen of multi-cell type tumor spheroids was designed to identify active combinations of DNA G-quadruplex stabilizer agents and targeted small molecules. […] Compounds. […] If the clinical Cmax for an agent had not been determined, the highest concentration tested was 10 microM. […]
Mark one answer only. Choices: active, inactive

COc1ncnc(C2CC2)c1-c1ncc2cnn(Cc3ccc(-c4nc(C(F)(F)F)cn4C(C)C)cc3)c2n1 + Cc1cnc(CNC(=O)c2c(=O)c3ccc(N4CCCN(C)CC4)nc3n3c2sc2ccccc23)cn1
inactive
COc1ncnc(C2CC2)c1-c1ncc2cnn(Cc3ccc(-c4nc(C(F)(F)F)cn4C(C)C)cc3)c2n1 + CN(C)c1ccc(Nc2c3ccc(NC(=O)CCN4CCCC4)cc3nc3cc(NC(=O)CCN4CCCC4)ccc23)cc1
inactive
Nc1ccn(C2OC(CO)C(O)C2(F)F)c(=O)n1 (centres undefined) + Cc1cnc(CNC(=O)c2c(=O)c3ccc(N4CCCN(C)CC4)nc3n3c2sc2ccccc23)cn1
active

Next compound, please.
-- ask Outcome? CCCS(=O)(=O)Nc1ccc(F)c(C(=O)c2c[nH]c3ncc(-c4ccc(Cl)cc4)cc23)c1F + Cc1cnc(CNC(=O)c2c(=O)c3ccc(N4CCCN(C)CC4)nc3n3c2sc2ccccc23)cn1
-- reply inactive

----------
test system: IGROV1 complex spheroids (HUVEC, MSC), viability % test/control; assay: Anticancer human tumor IGROV1 cell line growth inhibition [GQUAD]; settings: second compound 1 µM; first compound 10 µM; stronger effect = lower value;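 further: spheroids exposed to compounds for 7 days before readout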;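 on viability, T/C: 100% = DMSO vehicle control viability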
Entries and their viability, T/C values follow.
Your answer is read as %, so omit the unit and give the number.

Before answering, review these 3 worked examples.
C#Cc1c(F)ccc2cc(O)cc(-c3ncc4c(N5CC6CCC(C5)N6)nc(OCC56CCCN5CC(F)C6)nc4c3F)c12 (stereo not drawn) + CN(C)c1ccc(Nc2c3ccc(NC(=O)CCN4CCCC4)cc3nc3cc(NC(=O)CCN4CCCC4)ccc23)cc1
44.8
COc1cc(C2c3cc4c(cc3C(OC3OC5COC(C)OC5C(O)C3O)C3COC(=O)C23)OCO4)cc(OC)c1O (stereo not drawn) + Cc1cnc(CNC(=O)c2c(=O)c3ccc(N4CCCN(C)CC4)nc3n3c2sc2ccccc23)cn1
6.49
COc1ncnc(C2CC2)c1-c1ncc2cnn(Cc3ccc(-c4nc(C(F)(F)F)cn4C(C)C)cc3)c2n1 + Cc1[nH]c2ccc(F)cc2c1-c1nc2c3cccnc3c3ncccc3c2[nH]1
3.74

-- ask Enter measured viability, T/C, system IGROV1 complex spheroids (HUVEC, MSC), viability % test/control, for the compound shown: CC(C)n1c(=O)n(C)c2cnc3cc(F)c(-c4ccc(OCCCN5CCCCC5)nc4)cc3c21 + CN(C)c1ccc(Nc2c3ccc(NC(=O)CCN4CCCC4)cc3nc3cc(NC(=O)CCN4CCCC4)ccc23)cc1
-- reply 13

-- ask Provide the reported viability, T/C (system: IGROV1 complex spheroids (HUVEC, MSC), viability % test/control) for CC1COCCN1c1cc(C2(O)CC3CCC(C2)O3)c2cnn(-c3ccn[nH]3)c2n1 (stereo not drawn) + Cc1cnc(CNC(=O)c2c(=O)c3ccc(N4CCCN(C)CC4)nc3n3c2sc2ccccc23)cn1
-- reply 1.97

-- ask Report viability, T/C on IGROV1 complex spheroids (HUVEC, MSC), viability % test/control for this entry: CC1COCCN1c1cc(-c2ccnn2C)c2ccnc(-c3ccn[nH]3)c2n1 (stereo not drawn) + CN(C)c1ccc(Nc2c3ccc(NC(=O)CCN4CCCC4)cc3nc3cc(NC(=O)CCN4CCCC4)ccc23)cc1
-- reply 3.85

-- ask Quote IGROV1 complex spheroids (HUVEC, MSC), viability % test/control viability, T/C for entry O=c1[nH]cc(F)c(=O)[nH]1 + CN(C)c1ccc(Nc2c3ccc(NC(=O)CCN4CCCC4)cc3nc3cc(NC(=O)CCN4CCCC4)ccc23)cc1 .
-- reply 24.2

----------
test system: IGROV1 complex spheroids (HUVEC, MSC), viability % test/control; assay: Anticancer human tumor IGROV1 cell line growth inhibition [GQUAD]; conditions: second compound 0.316 µM; first compound 0.316 µM; stronger effect = lower value;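 further: spheroids exposed to compounds for 7 days before readout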;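 on viability, T/C: 100% = DMSO vehicle control viability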
readout.name: viability, T/C (%)
Report the figure in % without appending any unit label.

Some solved entries appear below for comparison.
Cc1cccc(N(C)C(=O)C2C(O)CCN2c2nc(C)cc(C(F)(F)F)c2C#N)c1 (stereo not given) + Cc1[nH]c2ccc(F)cc2c1-c1nc2c3cccnc3c3ncccc3c2[nH]1
70
C#Cc1c(F)ccc2cc(O)cc(-c3ncc4c(N5CC6CCC(C5)N6)nc(OCC56CCCN5CC(F)C6)nc4c3F)c12 (stereo not given) + Cc1[nH]c2ccc(F)cc2c1-c1nc2c3cccnc3c3ncccc3c2[nH]1
69.3

-- ask Please report the measured viability, T/C for CC(C)(O)C1CCC(Nc2ccc3ncc(-c4cccc(C(F)(F)F)c4)n3n2)CC1 (stereo not given) + CN(C)c1ccc(Nc2c3ccc(NC(=O)CCN4CCCC4)cc3nc3cc(NC(=O)CCN4CCCC4)ccc23)cc1
-- reply 85.9

-- ask Query viability, T/C for COc1cc(C2c3cc4c(cc3C(OC3OC5COC(C)OC5C(O)C3O)C3COC(=O)C23)OCO4)cc(OC)c1O (stereo not given) + Cc1cnc(CNC(=O)c2c(=O)c3ccc(N4CCCN(C)CC4)nc3n3c2sc2ccccc23)cn1
-- reply 14.4

-- ask State its viability, T/C for this compound: COc1cc(C2c3cc4c(cc3C(OC3OC5COC(C)OC5C(O)C3O)C3COC(=O)C23)OCO4)cc(OC)c1O (stereo not given) + Cc1[nH]c2ccc(F)cc2c1-c1nc2c3cccnc3c3ncccc3c2[nH]1
-- reply 23.7

----------
test system: IGROV1 complex spheroids (HUVEC, MSC), viability % test/control; test: Anticancer human tumor IGROV1 cell line growth inhibition [GQUAD]; conditions: curve of first compound; second compound 1 µM;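 further: spheroids exposed to compounds for 7 days before readout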
pIC50: −log10 of the molar value.
Listing: pIC50 of selected molecules

Some solved entries appear below for comparison.
COc1ncnc(C2CC2)c1-c1ncc2cnn(Cc3ccc(-c4nc(C(F)(F)F)cn4C(C)C)cc3)c2n1 + Cc1cnc(CNC(=O)c2c(=O)c3ccc(N4CCCN(C)CC4)nc3n3c2sc2ccccc23)cn1
> 7.50
O=C(c1cc(Cc2n[nH]c(=O)c3ccccc23)ccc1F)N1CCN(C(=O)C2CC2)CC1 + Cc1cnc(CNC(=O)c2c(=O)c3ccc(N4CCCN(C)CC4)nc3n3c2sc2ccccc23)cn1
> 7.50
Cn1ncnc1[C@H]1c2n[nH]c(=O)c3cc(F)cc(c23)N[C@@H]1c1ccc(F)cc1 + Cc1[nH]c2ccc(F)cc2c1-c1nc2c3cccnc3c3ncccc3c2[nH]1
> 9.00
Nc1ccn(C2OC(CO)C(O)C2(F)F)c(=O)n1 (stereo not given) + Cc1[nH]c2ccc(F)cc2c1-c1nc2c3cccnc3c3ncccc3c2[nH]1
> 7.50

-- ask Please report the measured pIC50 for C=CC(=O)N1CCN(c2nc(=O)n(-c3c(C)ccnc3C(C)C)c3nc(-c4c(O)cccc4F)c(F)cc23)C(C)C1 (stereo not given) + Cc1[nH]c2ccc(F)cc2c1-c1nc2c3cccnc3c3ncccc3c2[nH]1
-- reply > 7.50
